system-under-test: Peptidyl-prolyl cis-trans isomerase FKBP1A (Homo sapiens, UniProt P62942)
Sequence (P62942 whole entry): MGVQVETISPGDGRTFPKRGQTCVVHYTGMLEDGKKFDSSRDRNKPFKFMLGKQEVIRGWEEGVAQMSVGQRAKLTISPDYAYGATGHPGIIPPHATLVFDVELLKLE
quantity-kind: Ki (nM)
Please state the figure in nM; there is no need to write the unit.

Query COc1cc(CCCOC(=O)[C@@H]2CCCCN2S(=O)(=O)Cc2ccccc2)cc(OC)c1OC yields Ki of 230

====

Measured pIC50 of individual entries
system-under-test: Peptidyl-prolyl cis-trans isomerase FKBP1A (Homo sapiens, UniProt P62942)
Note on units: pIC50 is unitless, being -log10 of a concentration expressed in mol/L.

Some solved entries appear below for comparison.
>  <molecule>
COc1cc(CCCOC(=O)C2CCCCN2S(=O)(=O)c2cccc([N+](=O)[O-])c2)cc(OC)c1OC (stereo not drawn)

>  <system-under-test>
Peptidyl-prolyl cis-trans isomerase FKBP1A (Homo sapiens, UniProt P62942)

>  <result-value>
7.15

$$$$
>  <molecule>
Nc1cccc(S(=O)(=O)N2CCCCC2C(=O)OCCCc2cccnc2)c1 (stereo not drawn)

>  <system-under-test>
Peptidyl-prolyl cis-trans isomerase FKBP1A (Homo sapiens, UniProt P62942)

>  <result-value>
6.49

$$$$

So for CCOC(=O)C1CCCCN1S(=O)(=O)c1ccccc1 (stereo not drawn) , the logged pIC50 turned out to be 5.51

// recorded pIC50 for CCC(C)C(=O)C(=O)N1CCCCC1C(=O)OCCCc1cc(OC)c(OC)c(OC)c1 (stereo not drawn) : 5.38

// pIC50 value for COc1cc(CCCOC(=O)[C@@H]2CCCCN2S(=O)(=O)Cc2ccccc2)cc(OC)c1OC : 6.70

# molecule CCOC(=O)C1CCCCN1S(=O)(=O)Cc1ccccc1 (stereo not drawn) ; its pIC50 = 5.59

Lab note: COc1cc(CCCOC(=O)C2CCCCN2S(=O)(=O)c2ccccc2)cc(OC)c1OC (stereo not drawn) gave pIC50 of 6.92

Record COc1cc(CCCOC(=O)C2CCCCN2S(=O)(=O)Cc2ccccc2)cc(OC)c1OC (racemic) . Reported pIC50: 6.70
